tested on: PC-3; test: NCI tumour cell line growth inhibition, 48 h
Activity calls are given as the source filed them. Cut-off read from the data, not from the text of the source: active = GI50 up to about 1.1 µM and inactive = higher.
Outcomes: t for active, f for inactive

COc1ccc2c(O)c3[n+](cc2c1OC)CCc1cc2c(cc1-3)OCO2    f
COc1ncnc2c1cnn2Cc1cn(COCC(O)CO)nn1 (stereo not drawn)    f
CC1=NN(C(=O)CSc2nc3ccc(I)cc3c(=O)n2Cc2ccccc2)C(=O)C1    f
COc1ccccc1C(=O)N(Cc1ccccc1)c1ccc(Cl)c(C(=O)OC(C)C)c1    f
C=C1C(=O)O[C@@H]2O[C@@]3(C)CC[C@H]4[C@H](C)CC[C@@H]1[C@@]24O3    f
Cc1ccc(S(=O)(=O)NCCSS(=O)(=O)c2ccc(C)cc2)cc1    f
COc1nc(O)nc2c1C(c1ccc([N+](=O)[O-])cc1)c1c(OC)nc(O)nc1O2    f
CCOC(=O)C1C(=O)CC(C)(O)C(C(=O)OCC)C1c1ccc(N(C)C)cc1 (stereo not drawn)    f
CC[C@H](C)[C@H]1NC(=O)[C@@H](NC(=O)[C@@H](CC(C)C)N(C)C(=O)C2CCCN2C(=O)[C@H](C)O)[C@@H](C)OC(=O)[C@@H]2Cc3ccccc3CN2C(=O)[C@@H]2CCCN2C(=O)[C@H](CC(C)C)NC(=O)[C@@H](C)C(=O)[C@H](C(C)C)OC(=O)C[C@@H]1O (stereo partly drawn)    t
Nc1nc2ccc3ccccc3c2[nH]1    f
CCCCC(=O)Oc1ccc2c(C)cc(=O)oc2c1    f
O=C1NC(=O)C(C(CC(=O)c2ccc([N+](=O)[O-])cc2)c2ccccc2)C(=O)N1 (stereo not drawn)    f
CC(C)(C)/C(=N\Nc1nc2ccccc2[nH]1)c1ccccn1    f
O=c1oc2ccc([N+](=O)[O-])cc2c(Nc2ccc3c(c2)Oc2ccccc2O3)c1[N+](=O)[O-]    f
CC1=CC(O)(c2ccccc2)C(N2CCOCC2)N1O (stereo not drawn)    f
C[N+](C)(C)CCN[N+]1(C)CCCc2ccccc21 (stereo not drawn)    f
CCOc1ccc(NC(=S)N/C=C(/C(C)=O)C(=O)Nc2ccccc2C)cc1    f
C[C@]12CC[C@@H]3c4ccc(O)cc4CC[C@H]3[C@@H]1CC[C@@H]2OC(=O)CCc1ccccc1    f

* * *

Here the recorded GI50 is given for each entry.
system: DLD-1; assay: NCI tumour cell line growth inhibition, 48 h
Active and inactive are the calls of the source. Cut-off read from the data, not from the text of the source: active = GI50 up to about 1.1 µM and inactive = higher.
Measured Property: GI50

C=C(C(=C)N1N=NC2C3CCC(C3)C21)N1N=NC2C3CCC(C3)C21 (centres undefined)    > 100 µM (inactive)
O=C1c2ccc(O)c(O)c2C(=O)c2c(O)ccc(O)c21    32.5 µM (inactive)
O=C1OC(O)C(Oc2ccc(Cl)cc2)=C1Cl (centres undefined)    > 100 µM (inactive)
CCOC(=O)COc1cccc2c1C(=O)CCO2    > 100 µM (inactive)
O=C(CC1(O)C(=O)Nc2ccc([N+](=O)[O-])cc21)c1ccncc1 (centres undefined)    37.4 µM (inactive)
N#CC(Sc1ccccc1)C(N)=O (centres undefined)    > 100 µM (inactive)
COc1ccc(CC2NCCc3cc(OC)c(OC)cc32)cc1 (centres undefined)    > 100 µM (inactive)
C/C(=N\NS(=O)(=O)c1ccccc1)c1ccc(Cl)c(Cl)c1    41.8 µM (inactive)
C/C=C/C1(NS(=O)(=O)c2ccc(C)cc2)CCC(C(C)(C)C)CC1 (centres undefined)    35.8 µM (inactive)

* * *

system: OVCAR-5; assay: NCI tumour cell line growth inhibition, 48 h
Activity calls are given as the source filed them. Cut-off read from the data, not from the text of the source: active = GI50 up to about 1.1 µM and inactive = higher.
Outcomes: 1.0 for active, 0.0 for inactive

O=C(N/N=C\c1cccc2c([N+](=O)[O-])cccc12)Nc1ccccc1    0.0
CCCCCC(C(O)C#N)C(O)(C(F)(F)F)C(F)(F)F (stereo unspecified)    0.0
CC(=O)O[C@H]1C(=O)N(c2cc3c4ccccc4ccc3c3ccccc23)[C@@H]1c1ccccc1    0.0
CC1CCC(C(C)C)C(OC(=O)NCn2cc(-c3ccccc3)nn2)C1 (stereo unspecified)    0.0
CN(C)CCOc1cc2c(c3ccccc13)-c1ccccc1C2O (stereo unspecified)    0.0
CC(c1ccccc1)C(O)S(=O)(=O)O (stereo unspecified)    0.0
c1ccc2c(c1)CC1c3[nH]c4ccccc4c3CCN21 (stereo unspecified)    0.0
COc1ccc2nc3c4c(nccc4c2c1)-c1ncccc1C3=O    1.0
COC(=O)N/N=C(\C)C(CN1CCOCC1)C(c1ccccc1)c1cc2ccccc2oc1=O (stereo unspecified)    0.0
COC(=O)C(=O)C(C(=O)C(=O)Nc1ccc(F)cc1)c1nc2ccc([N+](=O)[O-])cc2nc1O (stereo unspecified)    0.0
COc1cccc(C2N3CCCCC3[C@@H]3c4[nH]c5ccccc5c4CCN23)c1OC (stereo partly specified)    0.0

* * *

tested on: 786-0; assay: NCI tumour cell line growth inhibition, 48 h
Calls of active or inactive are those of the source. Rule as the data show it: active = GI50 up to about 1.1 µM and inactive = higher.
Labels: true for active, false for inactive

O=C1C2Nc3ccccc3SC2C(=O)N1c1cccc([N+](=O)[O-])c1 (stereo not given)    false
CCN1CC2(COC)C(O)CC(OC)C34C5CC6(O)C(OC)C=C(C5C6OC(=O)c5ccc(OC)c(OC)c5)C(C(OC)C23)C14 (stereo not given)    false
CCCCC(=O)Oc1ccc2c(C)cc(=O)oc2c1    false
CN(/C(=N\O)c1ccccc1)c1ccccc1    false
O=C(CC1(O)C(=O)Nc2ccc([N+](=O)[O-])cc21)c1ccncc1 (stereo not given)    false
Clc1ccccc1C1=NN(c2ccccc2)C2c3cc(Br)ccc3OCC12 (stereo not given)    false
O=C(O)/C(=C\c1ccccc1Cl)S(=O)(=O)c1ccccc1    false
O=C1c2ccccc2-c2nc(-c3cccs3)cc3c2c1nc1ccccc13    false
CCC1(O)C(=O)OCc2c1cc1n(c2=O)Cc2cc3cc(N)ccc3nc2-1 (stereo not given)    true
O=C1/C(=C/c2ccccc2)CN(C(=O)OCC(Cl)(Cl)Cl)C/C1=C\c1ccccc1    false

* * *

tested on: DU-145; test: NCI tumour cell line growth inhibition, 48 h
Calls of active or inactive are those of the source. Cut-off read from the data, not from the text of the source: active = GI50 up to about 1.1 µM and inactive = higher.
Labels: YES = active, NO = inactive

C[C@]12C(=O)OC[C@H](c3ccccc3)N1C(=O)N(Cc1ccccc1)[C@@H]2CO    NO
Cc1ccc(C(C2C(=O)N(C)C(=O)N(C)C2=O)C(F)(F)C(=O)N(C)C)cc1 (stereo unspecified)    NO
CCc1cc2c(oc3cc(C)ccc32)c(=O)n1C    NO
COc1cc2c(/C=C3/C(=O)N(C)c4ccc(O)cc43)c(Cl)[nH]c2cc1C    YES
O=C(CSC1=NC(=O)C2(NN1)c1ccccc1-c1ccccc12)NC(=S)Nc1ccccc1    NO
CS(=O)(=O)CCC1CCC(=O)O1 (stereo unspecified)    NO

* * *

tested on: UACC-62; experiment: NCI tumour cell line growth inhibition, 48 h
Active and inactive are the calls of the source. Cut-off read from the data, not from the text of the source: active = GI50 up to about 1.1 µM and inactive = higher.
Examples of molecules with documented GI50 follow.
Measured Property: GI50

O=C(NNC(=S)Nc1ccccc1)c1nsc2ccccc12    26.2 µM (inactive)
O=S(=O)(O)Oc1cc2c(c(OS(=O)(=O)O)c1)C[C@H](OS(=O)(=O)O)[C@@H](c1ccc(OS(=O)(=O)O)c(OS(=O)(=O)O)c1)O2    > 100 µM (inactive)
O=C1c2ccccc2-c2nc(-c3cccs3)cc3c2c1nc1ccccc13    5.41 µM (inactive)
Cc1cccc(C)c1NC(=O)CCCC(=O)C1CC(=O)CCC1=O (stereo not drawn)    > 100 µM (inactive)
COc1cc(/C=C2\[C@H]3c4c(c(OC)c(C)c(OC)c4OC)C[C@@H](C(=O)N2Cc2ccccc2)N3C(=O)OC(C)C)c(OC)c(C)c1OC    92.9 µM (inactive)
NC(CC(O)(c1ccccc1)c1ccccc1)c1ccccc1S (stereo not drawn)    15.5 µM (inactive)
C/C=C(/C)C(=O)O[C@H]1[C@H]2[C@@H]([C@@H](OC(C)=O)[C@H](C)C(=O)[C@@]34C[C@@H](C)C(=O)[C@]3(/C=C(\C)[C@H]1OC(C)=O)O4)C2(C)C    3.35 µM (inactive)
COC(=O)C1=COc2c(n(C)c3ccccc23)-c2ccccc21    > 100 µM (inactive)

* * *

test system: LXFL 529; experiment: NCI tumour cell line growth inhibition, 48 h
The source made the active and inactive calls. Rule as the data show it: active = GI50 up to about 1.1 µM and inactive = higher.
Labels: t = active, f = inactive

COc1ccccc1C(=O)N(Cc1ccccc1)c1ccc(Cl)c(C(=O)OC(C)C)c1    f
CC(CC(=O)Nc1ccc(NC(=O)CC(C)/N=N\C(N)=O)cc1)/N=N\C(N)=O (stereo unspecified)    f
CCOC(=O)c1cn2c([nH]c3ccccc32)c(C#N)c1=O    f
CCCCNc1nc(C#N)c(N)s1    f
CC(c1ccccc1)C(O)S(=O)(=O)O (stereo unspecified)    f
Cc1cc2c(c(C(=O)O)c1C)-c1cccc(F)c1C2=O    f
CCN(CC)/[N+]([O-])=N/O    f
Cc1ccccc1-n1c(=O)sc2c(=O)n(-c3ccccc3)c(=S)[nH]c21    f
COC1OC(COC(C)=O)C(OC(C)=O)C(OC(C)=O)C1NC(=O)N(CCCl)N=O (stereo unspecified)    f
O=C1C(Nc2ccc(S(=O)(=O)Nc3cnc4ccccc4n3)cc2)=C/C(=N\c2ccc(S(=O)(=O)Nc3cnc4ccccc4n3)cc2)c2ccccc21    f
O=C(CC1(O)C(=O)Nc2ccc(Br)cc21)c1ccc(Cl)cc1Cl (stereo unspecified)    f
CN[C@@H](C)[C@@H](N)c1ccccc1    f
COC(=O)C(=O)C(C(=O)C(=O)Nc1ccc(F)cc1)c1nc2ccc([N+](=O)[O-])cc2nc1O (stereo unspecified)    f
C/C(=N\NS(=O)(=O)c1ccccc1)c1ccc(Cl)c(Cl)c1    f
C1CC[N+]23CCCC[N+]2(C1)CCCC3 (stereo unspecified)    f
CCN(CC)CCOc1ccc(C(O)(Cc2ccc(OC)cc2)c2ccccc2)cc1 (stereo unspecified)    f
CCCCCCCCCCCCCC(=O)O[C@H]1CC[C@H](NC(=O)[C@H](OC)[C@H](O)[C@@H](O)[C@H](O)/C=C/C(C)C)C(=O)N(C)C1 [BENGAMIDE B]    t
Nc1ncnc2c1ncn2C1OC(CSC(F)(F)F)C(O)C1O (stereo unspecified)    f
O=C(Nc1ccc([N+](=O)[O-])cc1)C(=O)C(C(=O)c1ccccc1F)C1OC(=O)c2ccccc21 (stereo unspecified)    f
NC1C[C@H](n2cc(/C=C/Br)c(=O)[nH]c2=O)C[C@@H]1CO (stereo partly specified)    f
[O-][n+]1c(-c2ccccc2)c2nc3ccccc3nc2c2ccccc21    f

Origin of measurements: ChEMBL document CHEMBL1201862
